Origin of measurements: patent US20210340231A1

Can you tell me kon for the items I'm about to list?
# tested.target: T1, CTNI quality control recombinant protein (PK2-CTNI-1, 170120, produced by the applicant) (human, UniProt P19429 2-210, limits assumed)
# T1 construct: also called cardiac troponin I
# T1 sequence (P19429 2-210 limits assumed): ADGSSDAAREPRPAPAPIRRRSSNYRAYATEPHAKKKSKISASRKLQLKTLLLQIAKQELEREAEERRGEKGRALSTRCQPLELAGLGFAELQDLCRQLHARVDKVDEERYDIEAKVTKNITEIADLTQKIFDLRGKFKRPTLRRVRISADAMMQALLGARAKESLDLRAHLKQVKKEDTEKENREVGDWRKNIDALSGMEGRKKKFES
# protocol.details: AMC sensor kinetics, antibody captured, cTnI analyte
Phrase the answer as number then unit, nothing more needed.

Guide cases for kon, answers given:
{"binder": "Mutation 1-38 (antibody, V domains shown, built as for Mutation 1) VH: EVQLQQSGAELVKPGASVKLSCTASGFNIKDYYMHWMKQRTEQGLDWIGRIDPEDAETKYAPEFQGKATITADTSSNTAYLQLSTLTSEDTAVYYCARYYSSYIPFVYWGQGTLVTASA VL: DVVMTQTPLSLSVSLGDQASISCRSSQSLIYSNRHTYLHWYLQKPGQSPKLLIFQISNRFSGVPDRFSGSGSGTDFTLKINRVEAEDLGVYFCSQSTHIPFTFGSGTKLEIKR", "kon": "431000 M⁻¹ s⁻¹"}
{"binder": "Mutation 1-6 (antibody, V domains shown, built as for Mutation 1) VH: EVQLQQSGAELVKPGASVKLSCTASGFNIKDYFMHWMKQRTEQGLDWIGRIDPEDGETKYAPEFQGKATITADTSSNTAYLQLSTLTSEDTAVYYCARYYSSYVPFVYWGQGTLVTASA VL: DVVMTQTPLSLSVSLGDQASISCRSSQSILYSNRHTYLHWYLQKPGQSPKLLIFQVSNRFSGVPDRFSGSGSGTDFTLKINRVEAEDLGVYFCSQSTHIPYTFGSGTKLEIKR", "kon": "362000 M⁻¹ s⁻¹"}

Consider the record given below.
Fill blank: measured kon of the binder Mutation 1-40 (antibody, V domains shown, built as for Mutation 1) VH: EVQLQQSGAELVKPGASVKLSCTASGFNLKDYYMHWMKQRTEQGLDWIGRIDPEDGETKYAPEFQGKATITADTSSNTAYLQLSTLTSEDTAVYYCARYYSSYIPFVYWGQGTLVTASA VL: DVVMTQTPLSLSVSLGDQASISCRSSQSLLYSNRHTYLHWYLQKPGQSPKLLIFQISNRFSGVPDRFSGSGSGTDFTLKINRVEAEDLGVYFCSQSTHLPFTFGSGTKLEIKR is ____.
200000 M⁻¹ s⁻¹
